Each entry below carries its reported koff.
target: T1, IGF1R-Fc (extracellular domain of human IGF1R aa 1-932 fused to hinge and constant regions of human IgG1) (human, UniProt P08069 31-932); test: SPR Biacore, IGF1R-Fc
T1 construct: range 1-932; made in house by transient transfection, purified on Protein A; also called IGF-IR-Fc; not shown: hinge and constant regions of human IgG1
endpoint: koff (s⁻¹)

binder	endpoint	measured
I1-GSGCGS8-E5 pegylated (designed binder, PEG on the Cys of the GSGCGS8 linker, alternative clone of I1-GS10-E5 pegylated; tail of first monomer EIEK (D to E); also called I1-GSGCGS8-E5(3)) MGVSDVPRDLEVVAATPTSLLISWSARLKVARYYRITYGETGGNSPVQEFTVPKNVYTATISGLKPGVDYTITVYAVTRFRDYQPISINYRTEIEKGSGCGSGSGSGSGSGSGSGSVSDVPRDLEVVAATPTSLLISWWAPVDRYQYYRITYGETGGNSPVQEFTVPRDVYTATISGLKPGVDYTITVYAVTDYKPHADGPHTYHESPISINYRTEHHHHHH	koff	0.000245
I1(S91C)-GS10-E5 pegylated (designed binder, PEG on Cys at position 91 of I1 (position of SEQ ID NO: 1), also called I1(S91C)-GS10-E5(7)) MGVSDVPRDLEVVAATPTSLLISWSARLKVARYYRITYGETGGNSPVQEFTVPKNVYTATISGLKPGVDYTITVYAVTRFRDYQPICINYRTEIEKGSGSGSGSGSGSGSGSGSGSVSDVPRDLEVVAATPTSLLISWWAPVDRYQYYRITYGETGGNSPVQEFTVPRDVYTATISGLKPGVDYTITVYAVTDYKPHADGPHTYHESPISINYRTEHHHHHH	koff	0.000589
I1(S62C)-GS10-E5 pegylated (designed binder, PEG on Cys at position 62 of I1 (position of SEQ ID NO: 1), also called I1(S62C)-GS10-E5(5)) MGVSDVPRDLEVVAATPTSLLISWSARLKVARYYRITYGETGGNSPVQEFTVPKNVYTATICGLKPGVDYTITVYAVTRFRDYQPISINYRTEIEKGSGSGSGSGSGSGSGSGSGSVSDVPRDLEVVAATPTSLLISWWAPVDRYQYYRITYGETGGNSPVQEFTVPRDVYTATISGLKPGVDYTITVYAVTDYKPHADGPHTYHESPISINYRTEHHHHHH	koff	0.000234
